system: cocklebur; assay: Test B pre/postemergence cocklebur; format: in vivo, Xanthium strumarium; conditions: Rate 250 g/ha, Postemergence; scale 0 to 10, 0 is no effect, 10 is complete control
Examples of compounds with documented Cocklebur plant response rating follow.

I am curious: what Cocklebur plant response rating value has been reported for CCOP(=O)(OCC)C(C)n1c(=O)on(C(=O)N(c2ccc(F)cc2F)C(C)C)c1=O (stereo not shown) ?
0

Others:
I am curious: what Cocklebur plant response rating value has been reported for CC(C)N(C(=O)n1oc(=O)n(CC(F)F)c1=O)c1ccc(F)cc1F ?
2

What do you get for COC(=O)C(CCO)n1c(=O)on(C(=O)N(c2ccccc2)C(C)C)c1=O (stereo not shown) ?
0

What do you get for CC(C)N(C(=O)n1oc(=O)n(CC(F)F)c1=O)c1ccccc1 ?
2

* * *

system: blackgrass; test: Test B pre/postemergence blackgrass; type: in vivo, Alopecurus myosuroides; conditions: Preemergence, Rate 250 g/ha; scale of 0 to 10 where 0 is no effect and 10 is complete control
Where Blackgrass plant response rating equals or exceeds 5, the correct label is condition met; where it does not, the label is condition not met.

Consider the following illustrative entries.
Exam item: decide whether the reported Blackgrass plant response rating for CCC(=O)Cn1c(=O)on(C(=O)N(c2ccc(F)cc2)C(C)C)c1=O [Compound 252] is at least 5.
condition not met

What do you get for CCC(CC)n1c(=O)on(C(=O)N(c2ccc(F)cc2F)C(C)C)c1=O [Compound 353] ?
condition met

What do you get for CC(C)N(C(=O)n1oc(=O)n(CCCC(F)(F)F)c1=O)c1ccc(F)cc1 [Compound 398] ?
condition met

What do you get for CC(C)N(C(=O)n1oc(=O)n([C@@H]2C[C@H]2C)c1=O)c1ccc(F)cc1 (relative stereo) [Compound 392] ?
condition met

What do you get for CC(C)N(C(=O)n1oc(=O)n(C2CC2)c1=O)c1ccccc1 [Compound 243] ?
condition met

What do you get for CC(C)N(C(=O)n1oc(=O)n(-c2ccc3ccccc3c2)c1=O)c1ccccc1 [Compound 332] ?
condition not met

Others:
Exam item: decide whether the reported Blackgrass plant response rating for CSCCn1c(=O)on(C(=O)N(c2ccccc2)C(C)C)c1=O [Compound 419] is at least 5.
condition not met

What do you get for CC(C)N(C(=O)n1oc(=O)n(CCC2CCCCC2)c1=O)c1ccc(F)cc1 [Compound 257] ?
condition not met

What do you get for CC(C)N(C(=O)n1oc(=O)n(C2(C)CC2)c1=O)c1ccccc1 [Compound 360] ?
condition met

* * *

Examples of compounds with documented Rape plant response rating follow.
test system: rape; experiment: Test B pre/postemergence rape; format: in vivo, Brassica napus; conditions: Postemergence, Rate 125 g/ha; scale of 0 to 10 where 0 is no effect and 10 is complete control
Just the number, please, no unit after it.

I am curious: what Rape plant response rating value has been reported for CC(C)N(C(=O)n1oc(=O)n(C(C)c2ccccc2)c1=O)c1ccc(F)cc1 (centres unmarked) ?
0

Others:
I am curious: what Rape plant response rating value has been reported for COC(=O)N(C)CCn1c(=O)on(C(=O)N(c2ccccc2)C(C)C)c1=O ?
0

What do you get for CCc1noc(C)c1-n1c(=O)on(C(=O)N(c2ccc(F)cc2)C(C)C)c1=O ?
0

What do you get for CCOP(=O)(OCC)C(C)n1c(=O)on(C(=O)N(c2ccc(F)cc2F)C(C)C)c1=O (centres unmarked) ?
2

What do you get for CC1CCCCC1n1c(=O)on(C(=O)N(c2ccc(F)cc2)C(C)C)c1=O (centres unmarked) ?
0

What do you get for CC[C@@H](C)n1c(=O)on(C(=O)N(c2ccc(Cl)cc2)C(C)C)c1=O ?
0

What do you get for COC(=O)C(CCO)n1c(=O)on(C(=O)N(c2ccccc2)C(C)C)c1=O (centres unmarked) ?
0

What do you get for CCOC(=O)Cn1c(=O)on(C(=O)N(c2ccc(F)cc2)C(C)C)c1=O ?
0
